Where do the numbers come from? From paper PMC7904550.

Experiment: in vivo
Settings: male, Wistar, rat, serum, po, 1000 mg/kg
measured_quantity: Tmax (min)
Unit min implied. Number only.

What does the data say about its Tmax? Entry: CCCOC(=O)c1ccc(O)cc1 [Propyl paraben, Propyl 4-hydroxybenzoate]
10.2

What does the data say about its Tmax? Entry: CCOC(=O)c1ccc(O)cc1 [Ethyl paraben, Ethyl 4-hydroxybenzoate]
4.8

* * *

Experiment: in vivo
Conditions: male, Wistar, rat, serum, po, 1000 mg/kg, AUC0-1 h, parent compound
For each of the compounds below, state its AUC(0-t).
Unit ng·h/mL implied. Number only.

What does the data say about its AUC(0-t)? Entry: CCOC(=O)c1ccc(O)cc1 [Ethyl paraben, Ethyl 4-hydroxybenzoate]
490

What does the data say about its AUC(0-t)? Entry: COC(=O)c1ccc(O)cc1 [Methyl paraben, Methyl 4-hydroxybenzoate]
4640

What does the data say about its AUC(0-t)? Entry: CCCOC(=O)c1ccc(O)cc1 [Propyl paraben, Propyl 4-hydroxybenzoate]
175
